Entry source: ChEMBL document CHEMBL1201862

- Tested on: M14
- assay_notes: NCI tumour cell line growth inhibition, 48 h
The source made the active and inactive calls. Cut-off read from the data, not from the text of the source: active = GI50 up to about 1.1 µM and inactive = higher.
Labels: active, inactive

- compound: "CS/C(=N\\c1nccs1)NC(=O)c1cccc(Cl)c1"
  group_label: "inactive"
- compound: "O=C(O)c1ccc([N+](=O)[O-])c2c(=O)c3ccccc3[nH]c12"
  group_label: "inactive"
- compound: "CC(=O)O[C@H]1[C@@H](OC2CCCC2(c2ccccc2)c2ccccc2)O[N+]([O-])=C[C@@]12COCc1cc3c(cc12)OCO3 (stereo partly drawn)"
  group_label: "inactive"
- compound: "CCCCCCCCCCCCCC(=O)CSCCNC(=O)CCNC(=O)[C@@H](O)C(C)(C)COP(=O)(O)OP(=O)(O)OCC1OC(n2cnc3c(N)ncnc32)C(O)C1OP(=O)(O)O (stereo partly drawn)"
  group_label: "inactive"
- compound: "c1ccc(C2=NN(c3nc4ccccc4s3)C3(CCCCC3)N2)nc1"
  group_label: "inactive"
- compound: "Clc1ccc(/C=C/c2csnn2)cc1"
  group_label: "inactive"
- compound: "Sc1nn2c(COc3cc(Cl)c(OCc4nnc5sc(S)nn45)cc3Cl)nnc2s1"
  group_label: "inactive"
- compound: "CC1(C)CNC(=O)C2(/C=N/C(C)(C)CNC(=O)C3(/C=N/1)CCCO3)CCCO2 (stereo not drawn)"
  group_label: "inactive"
- compound: "CCCCn1c2c(n(CCCC)c1=S)-c1c(n(CCCC)c(=S)n1CCCC)SSSS2"
  group_label: "inactive"
- compound: "O=C1c2ccc3c4ccc5c6c(ccc(c7ccc(c2c37)C(=O)N1CCN1CCCCC1)c64)C(=O)N(CCN1CCCCC1)C5=O"
  group_label: "inactive"
- compound: "C[C@@H](CC(O)C(O)C(C)(C)O)C1CCC23CC12CCC1[C@@]2(C)CCC(O)C(C)(C)C2CC(OC2OC(CO)C(O)C(O)C2O)[C@]13C (stereo partly drawn)"
  group_label: "inactive"
- compound: "O=c1n(CCCCn2c(=O)n(CC3CS3)c3ccccc32)c2ccccc2n1CC1CS1 (stereo not drawn)"
  group_label: "inactive"
- compound: "NS(=O)(=O)c1ccc(NCc2nc3ccccc3[nH]2)cc1"
  group_label: "inactive"
- compound: "COc1ccc(C[C@H]2NC(=O)/C=C/C[C@@H]([C@H](C)[C@H]3O[C@@H]3c3ccccc3)OC(=O)[C@H](CC(C)C)OC(=O)[C@H](C)CNC2=O)cc1"
  group_label: "active"
- compound: "CC1(C)N=C(N)N=C(N)N1c1ccc(Cl)cc1"
  group_label: "inactive"
- compound: "Cc1ccc(O)c(C(c2cc(C)ccc2O)c2cc([N+](=O)[O-])ccc2O)c1"
  group_label: "inactive"
- compound: "CC(=O)Oc1ccccc1C(=O)O"
  group_label: "inactive"
- compound: "O=C1C2C(C(=O)N1OS(=O)(=O)c1ccccc1)N(Cc1ccccc1)C(=O)N2Cc1ccccc1 (stereo not drawn)"
  group_label: "inactive"

* * *

- Test system: UO-31
- assay_notes: NCI tumour cell line growth inhibition, 48 h
Calls of active or inactive are those of the source. Cut-off read from the data, not from the text of the source: active = GI50 up to about 1.1 µM and inactive = higher.

- compound: "COC1(c2cccs2)c2ccccc2C(OC)(c2cccs2)c2ccccc21 (stereo not given)"
  GI50: "> 100 µM (inactive)"
- compound: "Cc1ccc(O)c(C(c2cc(C)ccc2O)c2cc([N+](=O)[O-])ccc2O)c1"
  GI50: "7.74 µM (inactive)"
- compound: "COCC(O)CN1C(N)=NC(O)C1O (stereo not given)"
  GI50: "> 100 µM (inactive)"
- compound: "Nc1ccn(C=C=CCO)c(=O)n1"
  GI50: "> 100 µM (inactive)"
- compound: "O=C1CNC(=O)/C(=C/c2c[nH]c3ccccc23)N1"
  GI50: "> 100 µM (inactive)"
- compound: "O=C(NC(Cc1c[nH]cn1)C(=O)N1CCCC1)C1CCCC1 (stereo not given)"
  GI50: "> 100 µM (inactive)"
- compound: "O=c1c2c3c(sc2nc2n1N=CN(c1ccc(Cl)cc1)C2)CCCC3"
  GI50: "> 100 µM (inactive)"
- compound: "CCOC(=O)CCC(C(=O)OCC)n1nc2ccc(Nc3c(C)[n+]([O-])c4ccc(Cl)cc4[n+]3[O-])cc2n1 (stereo not given)"
  GI50: "15.5 µM (inactive)"
- compound: "CC(C(=O)[O-])S(=O)(=O)O.CCc1c2cc(OC)c(OC)cc2cc2c3cc(OC)c(OC)cc3cc[n+]12"
  GI50: "53.7 µM (inactive)"
- compound: "Cc1ccc(NC(=O)c2cccc([N+](=O)[O-])c2O)c([N+](=O)[O-])c1"
  GI50: "24.1 µM (inactive)"
